measured target: FGF-R3C ECD (Homo sapiens, UniProt P22607)
Sequence (P22607 23-375 limits assumed): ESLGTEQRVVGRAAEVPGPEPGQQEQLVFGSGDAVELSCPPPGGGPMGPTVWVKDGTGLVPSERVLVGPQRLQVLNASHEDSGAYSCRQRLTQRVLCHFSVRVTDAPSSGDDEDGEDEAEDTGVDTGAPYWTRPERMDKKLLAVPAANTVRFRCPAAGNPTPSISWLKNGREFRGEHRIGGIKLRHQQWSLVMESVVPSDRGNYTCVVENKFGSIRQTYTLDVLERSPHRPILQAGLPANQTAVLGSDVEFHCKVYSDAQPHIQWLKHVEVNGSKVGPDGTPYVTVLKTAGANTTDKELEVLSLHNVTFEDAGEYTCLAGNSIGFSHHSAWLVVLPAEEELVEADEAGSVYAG
method: biochemical
Format: binding
Design: DNA constructs for the extracellular domain (ECD) of human FGF-; HPC4 (C); made in house; host or cells: HEK 293-6E
No end group written: not given here.
experimental endpoint: Kd

Task: Consider the substance shown here: GSGSDYKDDDDK-NH2 [flag, reference compound] What is its recorded Kd?
Output: > 10 µM
